// data source = the supplement of paper PMC10598134

Measured collision cross section accompanies every entry in the list below.
# experiment-notes: collision cross section of modified peptide (TIMS, N2, iRT-aligned); higher = larger / more extended gas-phase ion
# protocol-conditions: charge state: 2; modification: Nitro (Y)
measurement-kind: collision cross section (Å²)

substance: FEGAIYR [_FEGAIY(Nitro (Y))R_]
measurement-kind: collision cross section
readout-value: 321.92
//
substance: GYDVIAQAQSGTGK [_GY(Nitro (Y))DVIAQAQSGTGK_]
measurement-kind: collision cross section
readout-value: 387.17
//
substance: LELAQYR [_LELAQY(Nitro (Y))R_]
measurement-kind: collision cross section
readout-value: 326.89
//
substance: DYVSQFEGSALGK [_DY(Nitro (Y))VSQFEGSALGK_]
measurement-kind: collision cross section
readout-value: 387.16
//
substance: SYHLQIVTK [_SY(Nitro (Y))HLQIVTK_]
measurement-kind: collision cross section
readout-value: 345.14
//
substance: DLTTAGAVTQCYR [_DLTTAGAVTQCY(Nitro (Y))R_]
measurement-kind: collision cross section
readout-value: 399.32
//
substance: FLQEFYQDDELGK [_FLQEFY(Nitro (Y))QDDELGK_]
measurement-kind: collision cross section
readout-value: 428.07
//
substance: SVSSSSYR [_SVSSSSY(Nitro (Y))R_]
measurement-kind: collision cross section
readout-value: 311.12
//
substance: FGYVDFESAEDLEK [_FGY(Nitro (Y))VDFESAEDLEK_]
measurement-kind: collision cross section
readout-value: 424.66
//
substance: GHYTIGK [_GHY(Nitro (Y))TIGK_]
measurement-kind: collision cross section
readout-value: 323.5
//
substance: PATSYVR [_PATSY(Nitro (Y))VR_]
measurement-kind: collision cross section
readout-value: 318.95
//
substance: GDYDLNAVR [_GDY(Nitro (Y))DLNAVR_]
measurement-kind: collision cross section
readout-value: 344.3
